- assay text: E. coli acrAB mutant growth effects, primary screen, E. coli filamentation inducers, strain DRC39, OD650, 48 h (AID 1179);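 further: screen aims at cell division blockers that make cells filament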
- measurement parameters: E. coli DRC39 delta-acrAB growth, higher = more signal, called active from +8 up or from −8 down
z-score values, listed per item
measurement kind: z-score

C=C(CCCC)C(=O)CC[C@@H](OC(=O)c1ccccc1-c1ccccc1C(=O)O)c1cccc(OCCO)c1 ... -0.549
C[C@]1(C(=O)NCCN2CCOCC2)c2ccccc2C(=O)N(Cc2ccc(OC(F)(F)F)cc2)[C@H]1c1ccc(CO)cc1 ... 0.121
CC(C)(C)N1CC=CC23O[C@@H]4C=CCOC(=O)[C@@H]4[C@H]2C(=O)N(CCCO)[C@@H]3C1=O (some centres undefined) ... -0.955
C=C(CCCC)/C(=C/C[C@@H](OC(=O)c1ccncc1)c1cccc(OCCO)c1)c1cnc2ccccc2c1 ... 0.357
COc1ccc([Si](C)(C)[C@@H]2[C@@H](CCO)O[C@]3(C(=O)N(Cc4cccc(N5C(=O)c6ccccc6Oc6ccccc65)c4)c4ccccc43)[C@H]2C)cc1 ... 1.48
O=C(O)[C@H]1C[C@H]2C(=O)N3CCC[C@H]3C(=O)N2[C@H]1c1cccc(OCCO)c1 ... 0.896
COCCOC(=O)N1C(=O)[C@@]2(c3cc(C#CC4=CCCCC4)ccc31)[C@H](c1ccc(O)cc1)N1[C@H](c3ccccc3)[C@H](c3ccccc3)OC(=O)[C@H]1[C@@H]2C(=O)Nc1nc2ccccc2s1 ... 0.0717
O=C1O[C@@H](c2ccccc2)[C@@H](c2ccccc2)N2[C@@H](c3ccccc3OCCO)[C@]3(C(=O)Nc4ccc(C#CCCO)cc43)[C@@H](C(=O)N3CCN(c4ncccn4)CC3)[C@H]12 ... -0.289
COc1ccc(NC(=O)O[C@H]2[C@H](OC(=O)Nc3ccc4c(c3)OCO4)[C@@H](OC(=O)Nc3ccc4c(c3)OCO4)[C@@H](OC)O[C@@H]2CO)cc1 ... 0.0559
O=C1NC(=O)C2C1C=CC(C(O)c1ccc(Br)cc1)N2Nc1ccccn1 (centres undefined) ... 0.956
C=C(/C(=C/C[C@@H](OC(=O)c1ccncc1)c1ccccc1OCCO)c1cc(C(=O)OC)ccc1OC)C(C)C ... 0.227
CC(C)C(=C=CC[C@H](O)c1ccc(OCCO)cc1)C[C@H](O)c1cc(Cl)cc(Cl)c1O ... 0.476
COC(=O)[C@@]1(Cc2ccccc2)[C@H]2c3cc(C(=O)N4CCCC4)[nH]c3C[C@H]2CN1C(=O)c1ccccc1 ... -0.548
COCCOC(=O)N1C(=O)[C@@]2(c3cc(C#CC4(O)CCCCCC4)ccc31)[C@H](C(=O)N1CCCCCCC1)[C@H]1C(=O)O[C@H](c3ccccc3)[C@H](c3ccccc3)N1[C@@H]2c1ccc(OCCO)cc1 ... 0.201

* * *

- assay text: small-molecule microarray binders of probe aXIP, primary screen, biochemical, NeuroSMM set, 635/667 nm fluorescence (AID 1119);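 further: probe is the protein aXip251-270 applied at 1 µg/mL to compound-printed slides; binding of probe to printed compounds measured as 667 nm fluorescence plus signal to noise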
- measurement parameters: higher = more signal, called active from +8 up or from −8 down
The label depends only on composite Z-score: 1 (yes) if it is at least 0.5, 0 (no) if it is smaller.

C[C@@H](OCc1ccccc1)C1NC(=O)[C@@]23C(=O)N[C@@H](Cc4ccccc4)C2[C@H](C)[C@@]2(C)O[C@H]2C3/C=C/C/C=C\CNC(=O)CNC1=O (stereo partly specified) ... 1 (yes)
C=CCOC(=O)[C@@H]1[C@H]2C(=O)O[C@H](c3ccccc3)[C@H](c3ccccc3)N2[C@H](c2ccc(OCCOC(=O)[C@H]3C[C@H]4C(=O)N[C@@H](CCCCNC(C)=O)C(=O)N4[C@H]3c3cccc(OCCO)c3)cc2)[C@@]12C(=O)Nc1ccc(I)cc12 ... 1 (yes)
C=C(C(=O)CC[C@H](OC(=O)c1cccnc1)c1ccc(CO)o1)C(C)C ... 1 (yes)
CO[C@H]1O[C@H](CO)[C@@H](OC(=O)Nc2ccc(Oc3ccccc3)cc2)[C@H](OC(=O)Nc2ccccc2-c2ccccc2)[C@@H]1OC(=O)Nc1ccccc1-c1ccccc1 ... 0 (no)
CN(C)CCCNC(=O)[C@@H]1c2ccccc2C(=O)N(CC23CC4CC(CC(C4)C2)C3)[C@H]1c1ccc(CO)cc1 ... 1 (yes)
CO[C@H]1O[C@H](CO)[C@@H](OC(=O)Nc2ccccc2-c2ccccc2)[C@H](OC(=O)Nc2ccc3c(c2)OCO3)[C@@H]1OC(=O)Nc1ccc2c(c1)OCO2 ... 0 (no)

* * *

- System: XIP peptide (Xip251-270)
- assay text: small-molecule binders of XIP peptide, primary screen, biochemical, small-molecule microarray, fluorescence 635/667 nm, 0.5 µg/mL protein (AID 1183)
- measurement parameters: small-molecule microarray binding, fluorescence 635 nm; higher = more signal
measurement kind: composite z-score

CC(C)C(O)C1C=CC2C(=O)N(C)C(=O)C2N1N(c1ccccc1)c1ccccc1 (configuration not stated) ... 0.123
COC(=O)[C@@]1(Cc2ccc(OC)cc2)[C@H]2c3cc(C(=O)N(C)C)n(Cc4nc5ccccc5[nH]4)c3C[C@H]2CN1C(=O)c1ccccc1 ... 0.599
C=C(/C(=C/C[C@@H](OC(=O)c1ccncc1)c1ccc(OCCO)cc1)c1cc(C(=O)OC)ccc1OC)C(C)C ... 0.309
O=C1O[C@@H](c2ccccc2)[C@@H](c2ccccc2)N2[C@@H](c3ccc(O)cc3)[C@]3(C(=O)Nc4ccc(C#CCCO)cc43)[C@@H](C(=O)Nc3nc4ccccc4s3)[C@H]12 ... 0.732
COc1ccc([Si](C)(C)[C@@H]2[C@@H](CCO)O[C@]3(C(=O)N(Cc4cccc(N5C(=O)c6cccc7cccc5c67)c4)c4ccccc43)[C@H]2C)cc1 ... 0.635
COc1ccc(NC(=O)O[C@H]2[C@H](OC(=O)Nc3ccc4c(c3)OCO4)[C@@H](OC(=O)Nc3ccc4c(c3)OCO4)[C@@H](OC)O[C@@H]2CO)cc1 ... 0.877
C=C(C(=O)CC[C@H](OC(C)=O)c1cccc(OCCO)c1)C(C)C ... 0.565

* * *

- assay text: E. coli acrAB mutant growth effects, primary screen, E. coli filamentation inducers, strain DRC39, OD650, 48 h (AID 1179);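 further: screen aims at cell division blockers that make cells filament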
- measurement parameters: E. coli DRC39 delta-acrAB growth, higher = more signal, called active from +8 up or from −8 down
The label depends only on z-score: TRUE if it is at least -0.02, FALSE if it is smaller.

O=C1c2ccccc2[C@](Cc2ccccc2I)(C(=O)NCCN2CCOCC2)[C@H](c2ccc(CO)cc2)N1Cc1ccccc1 ... FALSE
CO[C@H]1O[C@H](CO)[C@@H](OC(=O)Nc2ccccc2-c2ccccc2)[C@H](OC(=O)Nc2ccc3c(c2)OCO3)[C@@H]1OC(=O)Nc1ccc2c(c1)OCO2 ... FALSE
O=C(N1CCCCC1)[C@@]1(Cc2ccccc2)COC(c2ccc(OCCCO)cc2)=N1 ... TRUE
COCCCNC(=O)[C@]1(Cc2ccccc2N=[N+]=[N-])N=C(c2ccc(OCCCO)cc2)O[C@@H]1c1ccccc1N=[N+]=[N-] ... FALSE
COC(=O)[C@H](Cc1ccccc1)N1CC(/C=C/C2CC2)=C[C@@H]1[C@@H](O)Cc1ccccc1 ... TRUE
CN(C)CCCCNC(=O)[C@H]1C[C@H]2C(=O)N[C@@H](CCCCN(C)C)C(=O)N2[C@H]1c1cccc(OCCO)c1 ... FALSE
C=CCNC(=O)[C@H]1[C@@H]2C(=O)O[C@@H](c3ccccc3)[C@@H](c3ccccc3)N2[C@@H](c2ccccc2OCCO)[C@]12C(=O)N(C(=O)OCCOC)c1ccc(C#CC3=CCCCC3)cc12 ... TRUE
COc1cc(CO)cc(I)c1O[C@H]1C=C(C(=O)NCCO)C[C@@H](NCc2ccccc2F)[C@@H]1O ... TRUE

* * *

- assay text: PSAC antagonists in infected red cells, primary screen, cell-based, P. falciparum Indochina, OD700, 18 h (AID 1157)
- measurement parameters: P. falciparum Indochina infected erythrocytes, osmotic lysis OD700, 18 h; higher = more signal, called active from +8 up or from −8 down
measurement kind: z-score

NC(=O)NCC#Cc1ccc2c(c1)[C@]1(C(=O)N2)[C@H](c2ccc(O)cc2)N2[C@H](c3ccccc3)[C@H](c3ccccc3)OC(=O)[C@H]2[C@@H]1C(=O)Nc1nc2ccccc2s1 ... 2.09
NC(N)=NCc1cn(CCc2c[nH]c3ccccc23)nn1 ... 0.114
CC(C)C(=C=CC[C@H](O)c1ccc(OCCO)cc1)C[C@H](O)c1cc(Cl)cc(Cl)c1O ... 1.24
Cc1ccc(S[C@]2(C(=O)NCC(F)(F)F)CC(=O)N(Cc3ccccc3)[C@@H]2c2ccc(CO)cc2)cc1 ... -1.73
C=C(/C=C/CNS(=O)(=O)c1ccc(C)cc1)[C@H](O)[C@H]1CCCN1S(=O)(=O)c1ccccc1[N+](=O)[O-] ... 0.647
C=CCOC(=O)[C@@H]1[C@H]2C(=O)O[C@H](c3ccccc3)[C@H](c3ccccc3)N2[C@H](c2ccc(OCCOC(=O)[C@H]3C[C@H]4C(=O)N[C@@H](CC(C)C)C(=O)N4[C@H]3c3ccc(O)cc3)cc2)[C@@]12C(=O)Nc1ccc(I)cc12 ... 0.792
CC=CC(O)C1C=CC2C(=O)N(C)C(=O)C2N1N1CCCCC1 (centres undefined) ... 0.801
C=C(/C(=C/C[C@@H](OC(=O)c1ccncc1)c1ccc(OCCO)cc1)c1cc(C(=O)OC)ccc1OC)C(C)C ... 1.02
NC(=O)NCC#Cc1ccc2c(c1)[C@]1(C(=O)N2)[C@H](C(=O)Nc2nc3ccccc3s2)[C@H]2C(=O)O[C@H](c3ccccc3)[C@H](c3ccccc3)N2[C@@H]1c1ccc(O)cc1 ... 1.19
O=C1O[C@@H](c2ccccc2)[C@@H](c2ccccc2)N2[C@@H](c3ccc(O)cc3)[C@]3(C(=O)Nc4ccc(C#CCCO)cc43)[C@@H](C(=O)NC[C@H](O)c3ccccc3)[C@H]12 ... 0.0695
CC(C)(C)N1CC=CC23O[C@@H]4C=CCOC(=O)[C@@H]4[C@H]2C(=O)N(CCCO)[C@@H]3C1=O (some centres undefined) ... -1.53
[N-]=[N+]=NCc1ccccc1C[C@]1(C(=O)NCC(O)CO)N=C(c2ccc(OCCCO)cc2)O[C@H]1c1ccccc1CN=[N+]=[N-] (some centres undefined) ... -0.481
COC(=O)[C@@]1(Cc2ccc(F)cc2)[C@H]2c3cc(C(=O)N4CCCC4)n(CCc4c[nH]c5ccc(OC)cc45)c3C[C@H]2CN1C(=O)c1ccccc1 ... -0.583
CN(C)CCCNC(=O)[C@@]1(C)c2ccccc2C(=O)N(Cc2cc(C(F)(F)F)cc(C(F)(F)F)c2)[C@H]1c1ccc(CO)cc1 ... 0.327
